Every entry's value here was drawn from patent US11230581B2.

# target: HLA-A*02:01 (Homo sapiens, UniProt P04439, D140Y/D185E/D98H/E176V/E277Q/G131W/G231S/I119V/I121R/I166T/I218V/L300P/L318F/N151K/N90K/P208A/P217A/Q86G/Q94H/R138H/R169H/T345S)
# procedure_text: MHC binding assay (UV-ligand exchange, β2m ELISA, peptide exchange yield)
# study_conditions: binding of HLA-class I restricted peptides to HLA-A*02:01, UV-ligand exchange
metric_name: Peptide exchange (MHC class I binding score, peptide exchange yield)

substance: 160 (FLFDEEIEQI; listed as Homo sapiens) [compound 160]
result: “+++” (≥50 = +++)
//
substance: 375 (SLTETIEGV; listed as Homo sapiens) [compound 375]
result: “++” (≥20% = ++)
//
substance: 31 (YLAPELFVNV; listed as Homo sapiens) [compound 31]
result: “++” (≥20% = ++)
//
substance: 1 (SLMEPPAVLLL; listed as Homo sapiens) [compound 1]
result: “+++” (≥50 = +++)

Now turn to the next substance.
// Peptide exchange (MHC class I binding score, peptide exchange yield) value for 476 (ALMERTGYSMV; listed as Homo sapiens) [compound 476] : “+++” (≥50 = +++)
